Assay Target: Delta-type opioid receptor (Homo sapiens)
Sequence (P41143 whole entry): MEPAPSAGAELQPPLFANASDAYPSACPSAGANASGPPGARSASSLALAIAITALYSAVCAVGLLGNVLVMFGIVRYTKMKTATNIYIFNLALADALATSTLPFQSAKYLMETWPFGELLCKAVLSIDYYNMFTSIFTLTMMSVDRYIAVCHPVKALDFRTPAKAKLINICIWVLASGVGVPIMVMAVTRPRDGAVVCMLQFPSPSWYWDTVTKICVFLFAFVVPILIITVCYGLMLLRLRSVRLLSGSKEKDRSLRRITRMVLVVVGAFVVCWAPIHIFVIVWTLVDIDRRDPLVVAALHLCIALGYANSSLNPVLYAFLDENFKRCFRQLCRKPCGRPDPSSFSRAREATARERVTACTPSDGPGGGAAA
Assay Name: Displacement of [3H]naltrindole from human cloned delta opioid receptor expressed in CHO cell membrane
Readout Kind: IC50

- Molecular String: "CCC(C)(CC)Sc1nc2cc(Cl)c(N3CCN(CCO)CC3)cc2[nH]1"
  Assay Target: "Delta-type opioid receptor (Homo sapiens)"
  Readout Kind: "IC50"
  Value: "> 1000 nM"
- Molecular String: "CCC(CC)Sc1nc2cc(Cl)c(N3CCN(CCO)CC3)cc2[nH]1"
  Assay Target: "Delta-type opioid receptor (Homo sapiens)"
  Readout Kind: "IC50"
  Value: "> 1000 nM"

====

Assay Target: Kappa-type opioid receptor (Homo sapiens)
Sequence (P41145 whole entry): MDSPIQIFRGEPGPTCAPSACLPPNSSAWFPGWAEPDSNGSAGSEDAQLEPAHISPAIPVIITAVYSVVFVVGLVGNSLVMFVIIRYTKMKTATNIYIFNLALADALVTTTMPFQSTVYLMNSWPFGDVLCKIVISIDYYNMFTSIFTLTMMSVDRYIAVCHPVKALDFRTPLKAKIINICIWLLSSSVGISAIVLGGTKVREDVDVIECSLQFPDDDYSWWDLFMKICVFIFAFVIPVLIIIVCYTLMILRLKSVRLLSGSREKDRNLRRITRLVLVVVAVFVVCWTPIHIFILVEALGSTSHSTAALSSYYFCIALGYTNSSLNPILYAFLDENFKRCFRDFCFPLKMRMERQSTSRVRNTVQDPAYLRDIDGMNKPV
Assay Name: Displacement of [3H]U-69593 from human cloned kappa opioid receptor expressed in CHO cell membrane
pIC50: −log10 of the molar value.
Tick 1 (yes) if pIC50 is 7 or greater. Tick 0 (no) if pIC50 is less than 7.

- Molecular String: "CCC(C)(CC)Sc1nc2cc(Cl)c(N3CCN(CCO)CC3)cc2[nH]1"
  Category: "0 (no)"
- Molecular String: "OCCN1CCN(c2cc3[nH]c(SC4CCCCC4)nc3cc2Cl)CC1"
  Category: "1 (yes)"
- Molecular String: "CC(C)Sc1nc2cc(Cl)c(N3CCN(CCO)CC3)cc2[nH]1"
  Category: "1 (yes)"
- Molecular String: "CCC(CC)Sc1nc2cc(Cl)c(N3CCN(CCO)CC3)cc2[nH]1"
  Category: "1 (yes)"

====

Assay Target: UniProt P41146
Assay Name: Displacement of [125I]Tyr14-NC from human ORL1 receptor expressed in CHO cell membrane
Format: cell membranes
So basically, if IC50 comes in under 20 nM it's criterion met, and if it's 20 nM or more it's criterion not met.

- Compound: "[O-][S+](Cc1cccc(Cl)c1Cl)c1nc2cc(F)c(N3CCNCC3)cc2[nH]1 (stereo unspecified)"
  Category: "criterion not met"
- Compound: "Cc1cccc(CSc2nc3cc(F)c(N4CCNCC4)cc3[nH]2)c1"
  Category: "criterion not met"
- Compound: "Fc1cc2nc(SCc3ccccc3)[nH]c2cc1N1CCNCC1"
  Category: "criterion not met"
- Compound: "Fc1cc2nc(SCc3cccc(Cl)c3Cl)[nH]c2cc1N1CCNCC1"
  Category: "criterion met"
- Compound: "CCC(CC)Sc1nc2cc(Cl)c(N3CCN(CCO)CC3)cc2[nH]1"
  Category: "criterion met"
- Compound: "Fc1ccc(CSc2nc3cc(F)c(N4CCNCC4)cc3[nH]2)cc1"
  Category: "criterion not met"
- Compound: "Cc1ccccc1CSc1nc2cc(F)c(N3CCNCC3)cc2[nH]1"
  Category: "criterion not met"
- Compound: "CCC(CC)Sc1nc2cc(C#N)c(N3CCNCC3)cc2[nH]1"
  Category: "criterion met"
- Compound: "CC(C)Sc1nc2cc(Cl)c(N3CCN(CCO)CC3)cc2[nH]1"
  Category: "criterion not met"
- Compound: "Fc1cc2nc(SCC3CCCCC3)[nH]c2cc1N1CCNCC1"
  Category: "criterion met"
- Compound: "CCC(CC)Sc1nc2cc(C(C)=O)c(N3CCNCC3)cc2[nH]1"
  Category: "criterion not met"

====

Assay Target: Nociceptin receptor (Homo sapiens)
Assay Name: Displacement of [125I]Tyr14-NC from human ORL1 receptor expressed in CHO cell membrane
Type: cell membranes

- Molecular String: "O=S(=O)(Cc1cccc(Cl)c1Cl)c1nc2cc(F)c(N3CCNCC3)cc2[nH]1"
  Assay Target: "Nociceptin receptor (Homo sapiens)"
  Result Modifier: "="
  IC50 (nM): 240
- Molecular String: "Fc1ccc(CSc2nc3cc(F)c(N4CCN(CC5CCCCCCC5)CC4)cc3[nH]2)cc1"
  Assay Target: "Nociceptin receptor (Homo sapiens)"
  Result Modifier: ">"
  IC50 (nM): 10000
- Molecular String: "CCC(C)(C)Sc1nc2cc(Cl)c(N3CCN(CCO)CC3)cc2[nH]1"
  Assay Target: "Nociceptin receptor (Homo sapiens)"
  Result Modifier: "="
  IC50 (nM): 5.6
- Molecular String: "OCCN1CCN(c2cc3[nH]c(SC4CCCCC4)nc3cc2Cl)CC1"
  Assay Target: "Nociceptin receptor (Homo sapiens)"
  Result Modifier: "="
  IC50 (nM): 20
- Molecular String: "CCC(CC)Sc1nc2ccc(N3CCNCC3)cc2[nH]1"
  Assay Target: "Nociceptin receptor (Homo sapiens)"
  Result Modifier: "="
  IC50 (nM): 320
- Molecular String: "CN1CCN(c2cc3[nH]c(SCc4ccc(F)cc4)nc3cc2F)CC1"
  Assay Target: "Nociceptin receptor (Homo sapiens)"
  Result Modifier: "="
  IC50 (nM): 910

====

IC50 for assorted compounds
Assay Target: Nociceptin receptor (Homo sapiens, UniProt P41146)
Sequence (P41146 whole entry): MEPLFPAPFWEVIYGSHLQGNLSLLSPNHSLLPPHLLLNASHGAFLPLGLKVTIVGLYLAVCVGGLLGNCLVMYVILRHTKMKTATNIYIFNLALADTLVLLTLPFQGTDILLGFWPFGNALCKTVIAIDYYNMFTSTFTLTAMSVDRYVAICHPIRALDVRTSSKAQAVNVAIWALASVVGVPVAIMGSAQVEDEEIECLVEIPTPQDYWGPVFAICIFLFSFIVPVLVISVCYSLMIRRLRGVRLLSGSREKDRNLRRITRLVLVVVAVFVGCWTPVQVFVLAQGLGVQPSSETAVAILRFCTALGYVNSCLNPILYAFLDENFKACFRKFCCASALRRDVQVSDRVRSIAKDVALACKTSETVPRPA
Assay Name: Displacement of [125I]Tyr14-NC from human ORL1 receptor expressed in CHO cell membrane
Format: cell membranes
Readout Kind: IC50 (µM)

- Molecular String: "CC(C)(C)Sc1nc2cc(Cl)c(N3CCN(CCO)CC3)cc2[nH]1"
  Assay Target: "Nociceptin receptor (Homo sapiens, UniProt P41146)"
  Readout Kind: "IC50"
  Measure Unit: "µM"
  Value: 0.017
- Molecular String: "Fc1ccc(CSc2nc3cc(F)c(N4CCN(Cc5ccccc5)CC4)cc3[nH]2)cc1"
  Assay Target: "Nociceptin receptor (Homo sapiens, UniProt P41146)"
  Readout Kind: "IC50"
  Measure Unit: "µM"
  Value: 8.2
- Molecular String: "Fc1cc2nc(SCc3ccccc3Cl)[nH]c2cc1N1CCNCC1"
  Assay Target: "Nociceptin receptor (Homo sapiens, UniProt P41146)"
  Readout Kind: "IC50"
  Measure Unit: "µM"
  Value: 0.023
- Molecular String: "CC1(Sc2nc3cc(Cl)c(N4CCN(CCO)CC4)cc3[nH]2)CCCCC1"
  Assay Target: "Nociceptin receptor (Homo sapiens, UniProt P41146)"
  Readout Kind: "IC50"
  Measure Unit: "µM"
  Value: 0.0018
- Molecular String: "CCC(CC)Sc1nc2cc(Cl)c(N3CCN(CC)CC3)cc2[nH]1"
  Assay Target: "Nociceptin receptor (Homo sapiens, UniProt P41146)"
  Readout Kind: "IC50"
  Measure Unit: "µM"
  Value: 0.01

====

Assay Target: Mu-type opioid receptor (Homo sapiens, UniProt P35372)
Sequence (P35372 whole entry): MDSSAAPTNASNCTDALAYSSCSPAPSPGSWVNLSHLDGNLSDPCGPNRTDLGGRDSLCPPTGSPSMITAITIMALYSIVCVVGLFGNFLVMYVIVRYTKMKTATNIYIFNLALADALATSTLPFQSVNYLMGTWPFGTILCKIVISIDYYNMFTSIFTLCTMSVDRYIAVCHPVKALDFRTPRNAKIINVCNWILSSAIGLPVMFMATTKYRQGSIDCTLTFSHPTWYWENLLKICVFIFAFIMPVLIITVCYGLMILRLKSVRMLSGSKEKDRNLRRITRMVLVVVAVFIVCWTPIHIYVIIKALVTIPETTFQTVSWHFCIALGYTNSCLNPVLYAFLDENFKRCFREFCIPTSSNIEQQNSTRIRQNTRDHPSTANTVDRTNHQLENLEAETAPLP
Assay Name: Displacement of [3H]diprenorphin from human cloned mu opioid receptor expressed in CHO cell membrane
Assay type: cell membranes
pIC50: −log10 of the molar value.
Tick Satisfied if pIC50 is 6 or greater. Tick Not satisfied if pIC50 is less than 6.

- Molecular String: "OCCN1CCN(c2cc3[nH]c(SC4CCCCC4)nc3cc2Cl)CC1"
  Assay Target: "Mu-type opioid receptor (Homo sapiens, UniProt P35372)"
  Category: "Satisfied"
- Molecular String: "CCC(C)(CC)Sc1nc2cc(Cl)c(N3CCN(CCO)CC3)cc2[nH]1"
  Assay Target: "Mu-type opioid receptor (Homo sapiens, UniProt P35372)"
  Category: "Not satisfied"
- Molecular String: "CC(C)Sc1nc2cc(Cl)c(N3CCN(CCO)CC3)cc2[nH]1"
  Assay Target: "Mu-type opioid receptor (Homo sapiens, UniProt P35372)"
  Category: "Not satisfied"
- Molecular String: "CCC(CC)Sc1nc2cc(Cl)c(N3CCN(CCO)CC3)cc2[nH]1"
  Assay Target: "Mu-type opioid receptor (Homo sapiens, UniProt P35372)"
  Category: "Not satisfied"
- Molecular String: "CC(C)(C)Sc1nc2cc(Cl)c(N3CCN(CCO)CC3)cc2[nH]1"
  Assay Target: "Mu-type opioid receptor (Homo sapiens, UniProt P35372)"
  Category: "Not satisfied"
- Molecular String: "CCC(C)(C)Sc1nc2cc(Cl)c(N3CCN(CCO)CC3)cc2[nH]1"
  Assay Target: "Mu-type opioid receptor (Homo sapiens, UniProt P35372)"
  Category: "Not satisfied"

====

Assay Target: Nociceptin receptor (Homo sapiens, UniProt P41146)
Assay Name: Displacement of [125I]Tyr14-NC from human ORL1 receptor expressed in CHO cell membrane
Format: cell membranes
pIC50: −log10 of the molar value.
Tick Yes if pIC50 is 7 or greater. Tick No if pIC50 is less than 7.

- Molecular String: "CCC(CC)Sc1nc2cc(F)c(N3CCNCC3)cc2[nH]1"
  Category: "Yes"
- Molecular String: "CCC(C)(CC)Sc1nc2cc(Cl)c(N3CCN(CCO)CC3)cc2[nH]1"
  Category: "Yes"
- Molecular String: "Fc1cc2nc(SCc3c(Cl)cccc3Cl)[nH]c2cc1N1CCNCC1"
  Category: "Yes"
- Molecular String: "Cc1ccc(CSc2nc3cc(F)c(N4CCNCC4)cc3[nH]2)cc1"
  Category: "Yes"
- Molecular String: "CSc1nc2cc(F)c(N3CCNCC3)cc2[nH]1"
  Category: "No"
